biological target: HLA-A*0203 (human); assay: competition with 125I-labelled standard peptide for purified HLA; settings: remark: other sources report otherwise
PROPERTY_LABEL: pIC50
// pIC50 here means minus log10 of the molar concentration (mol/L)

input: GET /values?readout=pIC50&item= KLQCVDLHVV [peptide 1419.24, PSA.166.V10]
output: 8.02
